# study.target: Delta-type opioid receptor (Homo sapiens, UniProt P41143)
# Sequence (P41143 whole entry): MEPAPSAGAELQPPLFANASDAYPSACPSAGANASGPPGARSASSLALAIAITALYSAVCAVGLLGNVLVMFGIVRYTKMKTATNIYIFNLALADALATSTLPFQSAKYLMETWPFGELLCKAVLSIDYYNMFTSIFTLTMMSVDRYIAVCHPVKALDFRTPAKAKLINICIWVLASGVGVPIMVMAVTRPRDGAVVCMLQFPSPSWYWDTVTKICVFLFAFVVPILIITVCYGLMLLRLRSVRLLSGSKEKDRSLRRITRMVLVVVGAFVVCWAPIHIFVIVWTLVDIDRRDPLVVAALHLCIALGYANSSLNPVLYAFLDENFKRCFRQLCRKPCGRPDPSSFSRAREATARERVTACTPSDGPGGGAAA
# assay.info: Displacement of [125I]IOXY from human delta opioid receptor expressed in CHO cells
Ki less than 0.7 µM is Condition met; Ki greater than or equal to 0.7 µM is Condition not met.

C[C@H]1C2CCCC1(c1cccc(O)c1)CCN2CCc1ccccc1 (mixture of isomers)
Condition met
Oc1cccc([C@]23CCC[C@H]([C@@H]2O)N(CCc2ccccc2)CC3)c1
Condition not met
C[C@H]1[C@H]2CCC[C@]1(c1cccc(O)c1)CCN2CCc1ccccc1
Condition met
O=C1[C@H]2CCC[C@]1(c1cccc(O)c1)CCN2CCc1ccccc1
Condition not met
C=C1[C@@H]2CCC[C@]1(c1cccc(O)c1)CCN2CCc1ccccc1
Condition met
Oc1cccc([C@]23CCC[C@H]([C@H]2O)N(CCc2ccccc2)CC3)c1
Condition met
Oc1cccc([C@@]23CCC[C@@H]([C@@H]2O)N(CCc2ccccc2)CC3)c1
Condition not met
C=C1[C@H]2CCC[C@@]1(c1cccc(O)c1)CCN2CCc1ccccc1
Condition met
C[C@@H]1[C@@H]2CCC[C@@]1(c1cccc(O)c1)CCN2CCc1ccccc1
Condition met
O=C1[C@@H]2CCC[C@@]1(c1cccc(O)c1)CCN2CCc1ccccc1
Condition not met

###

# study.target: UniProtKB P35372
Sorting guide: entries reporting Ki beneath 50 nM go in the TRUE pile, the rest go in the FALSE pile.

Oc1cccc([C@@]23CCC[C@@H]([C@H]2O)N(CCc2ccccc2)CC3)c1
TRUE
C=C1[C@@H]2CCC[C@]1(c1cccc(O)c1)CCN2CCc1ccccc1
TRUE
Oc1cccc([C@@]23CCC[C@@H]([C@@H]2O)N(CCc2ccccc2)CC3)c1
FALSE
O=C1[C@@H]2CCC[C@@]1(c1cccc(O)c1)CCN2CCc1ccccc1
FALSE
C[C@H]1[C@H]2CCC[C@]1(c1cccc(O)c1)CCN2CCc1ccccc1
TRUE

###

# study.target: Mu-type opioid receptor (Homo sapiens, UniProt P35372)
# Sequence (P35372 whole entry): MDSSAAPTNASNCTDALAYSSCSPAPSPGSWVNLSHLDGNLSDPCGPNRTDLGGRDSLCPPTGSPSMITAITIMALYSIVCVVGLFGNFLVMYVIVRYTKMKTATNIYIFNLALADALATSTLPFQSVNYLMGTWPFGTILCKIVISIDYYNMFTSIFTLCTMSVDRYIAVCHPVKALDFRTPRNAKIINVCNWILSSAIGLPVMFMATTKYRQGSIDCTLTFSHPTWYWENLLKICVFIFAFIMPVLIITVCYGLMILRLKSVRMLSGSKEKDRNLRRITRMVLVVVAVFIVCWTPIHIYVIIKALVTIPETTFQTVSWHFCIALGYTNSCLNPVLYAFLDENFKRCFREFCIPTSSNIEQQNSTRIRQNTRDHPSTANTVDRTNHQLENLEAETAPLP
pKi: −log10 of the molar value.
measured.metric: pKi

Oc1cccc([C@]23CCC[C@H]([C@H]2O)N(CCc2ccccc2)CC3)c1
9.72
C[C@H]1C2CCCC1(c1cccc(O)c1)CCN2CCc1ccccc1 (mixture of isomers)
8.51
C[C@@H]1[C@@H]2CCC[C@@]1(c1cccc(O)c1)CCN2CCc1ccccc1
8.10
O=C1[C@H]2CCC[C@]1(c1cccc(O)c1)CCN2CCc1ccccc1
7.48
Oc1cccc([C@]23CCC[C@H]([C@@H]2O)N(CCc2ccccc2)CC3)c1
7.23
C=C1[C@H]2CCC[C@@]1(c1cccc(O)c1)CCN2CCc1ccccc1
9.72

###

# study.target: Kappa-type opioid receptor (Homo sapiens)
# Sequence (P41145 whole entry): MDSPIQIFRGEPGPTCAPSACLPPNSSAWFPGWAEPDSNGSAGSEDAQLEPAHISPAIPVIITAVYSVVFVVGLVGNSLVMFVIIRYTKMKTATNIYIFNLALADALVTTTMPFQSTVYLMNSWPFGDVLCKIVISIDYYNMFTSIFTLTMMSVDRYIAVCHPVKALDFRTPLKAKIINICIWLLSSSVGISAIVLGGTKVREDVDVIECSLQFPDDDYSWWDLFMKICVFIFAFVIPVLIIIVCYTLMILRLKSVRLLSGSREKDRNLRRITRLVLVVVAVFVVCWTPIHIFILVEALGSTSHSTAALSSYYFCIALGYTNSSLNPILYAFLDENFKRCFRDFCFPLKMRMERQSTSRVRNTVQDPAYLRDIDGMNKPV
# assay.info: Displacement of [125I]IOXY from human kappa opioid receptor expressed in CHO cells
# Format: cell-based
measured.metric: log10 of Ki (log10 of the value in nM)

C[C@H]1[C@H]2CCC[C@]1(c1cccc(O)c1)CCN2CCc1ccccc1
0.60
C=C1[C@H]2CCC[C@@]1(c1cccc(O)c1)CCN2CCc1ccccc1
-0.19
C[C@@H]1[C@@H]2CCC[C@@]1(c1cccc(O)c1)CCN2CCc1ccccc1
1.18
O=C1[C@@H]2CCC[C@@]1(c1cccc(O)c1)CCN2CCc1ccccc1
3.58
C[C@H]1C2CCCC1(c1cccc(O)c1)CCN2CCc1ccccc1 (mixture of isomers)
1.16
Oc1cccc([C@@]23CCC[C@@H]([C@H]2O)N(CCc2ccccc2)CC3)c1
2.84
Oc1cccc([C@@]23CCC[C@@H]([C@@H]2O)N(CCc2ccccc2)CC3)c1
2.37
Oc1cccc([C@]23CCC[C@H]([C@H]2O)N(CCc2ccccc2)CC3)c1
2.26
O=C1[C@H]2CCC[C@]1(c1cccc(O)c1)CCN2CCc1ccccc1
2.18
Oc1cccc([C@]23CCC[C@H]([C@@H]2O)N(CCc2ccccc2)CC3)c1
2.39
C=C1[C@@H]2CCC[C@]1(c1cccc(O)c1)CCN2CCc1ccccc1
1.26
